Target: T1, B-cat-Halo (beta-catenin HaloTag construct expressed in HEK293 cells) (UniProt P35222 1-781, HaloTag NanoBRET 618 Ligand bound in the assay)
T1 construct: Transfected NanoBRET construct; not shown: HaloTag
T1 sequence (looked up): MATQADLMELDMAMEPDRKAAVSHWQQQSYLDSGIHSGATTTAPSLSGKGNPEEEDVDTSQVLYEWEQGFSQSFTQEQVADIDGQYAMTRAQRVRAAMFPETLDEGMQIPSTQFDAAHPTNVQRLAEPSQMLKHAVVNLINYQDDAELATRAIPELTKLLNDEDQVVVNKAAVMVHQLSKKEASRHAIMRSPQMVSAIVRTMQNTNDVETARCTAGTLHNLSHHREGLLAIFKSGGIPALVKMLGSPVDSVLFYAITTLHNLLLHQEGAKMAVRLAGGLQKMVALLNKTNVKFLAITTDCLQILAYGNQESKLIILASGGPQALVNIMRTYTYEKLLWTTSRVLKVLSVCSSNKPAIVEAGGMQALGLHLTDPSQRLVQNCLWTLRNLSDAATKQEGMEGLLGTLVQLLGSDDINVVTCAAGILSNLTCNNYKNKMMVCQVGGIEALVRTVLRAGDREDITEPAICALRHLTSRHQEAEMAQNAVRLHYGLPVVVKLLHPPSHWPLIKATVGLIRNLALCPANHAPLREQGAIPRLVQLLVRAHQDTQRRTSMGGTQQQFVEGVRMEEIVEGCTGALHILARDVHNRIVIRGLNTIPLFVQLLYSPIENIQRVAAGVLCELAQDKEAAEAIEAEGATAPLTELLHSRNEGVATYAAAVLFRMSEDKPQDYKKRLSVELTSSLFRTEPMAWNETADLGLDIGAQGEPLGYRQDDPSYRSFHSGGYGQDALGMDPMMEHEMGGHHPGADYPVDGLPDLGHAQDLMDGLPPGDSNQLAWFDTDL
Test: NanoBRET Abs IC50 in HEK293 cells; B-cat-Halo with competitor TCF4-Luc
Starred links: 1 amine or outer side, 2 acyl side, 3 side chain; linkers in the order of their positions; H or OH if unused. Positions of bridges follow the written chain, without caps; N, C: chain ends. Non-standard residues stand in square brackets, D forms with d. Primed or numbered codes have the meaning given here. PyrS2 = (S)-3-amino-1-((pent-4-en-1-yloxy)carbonyl)pyrrolidine-3-carboxylic acid, C=CCCCOC(=O)N1CC[C@@](N[*:1])(C(=O)[*:2])C1; B5(19) = 2-amino-2-(pent-4-en-1-yl)hept-6-enoic acid (bis(4-pentenyl)glycine), C=CCCCC(CCCC=C)(N[*:1])C(=O)[*:2]; Bta = N[C@@H](Cc1csc2ccccc12)C(=O)O; αAllylPro = C=CC[C@@]1(C(=O)O)CCCN1
ASSAY_METRIC: IC50 (µM)
Reply numerically in µM, unit not repeated.

Lookup: So what's the measured IC50 for this one? Ac-[αAllylPro]DL[B5(19)]DDAAFL[PyrS2]F[Bta]Q-NH2 (staple 1-4, 4-11) [I-1402]
Found: 27.1
